- assay.system: NADPH oxidase 4 (Homo sapiens)
- Sequence (whole entry): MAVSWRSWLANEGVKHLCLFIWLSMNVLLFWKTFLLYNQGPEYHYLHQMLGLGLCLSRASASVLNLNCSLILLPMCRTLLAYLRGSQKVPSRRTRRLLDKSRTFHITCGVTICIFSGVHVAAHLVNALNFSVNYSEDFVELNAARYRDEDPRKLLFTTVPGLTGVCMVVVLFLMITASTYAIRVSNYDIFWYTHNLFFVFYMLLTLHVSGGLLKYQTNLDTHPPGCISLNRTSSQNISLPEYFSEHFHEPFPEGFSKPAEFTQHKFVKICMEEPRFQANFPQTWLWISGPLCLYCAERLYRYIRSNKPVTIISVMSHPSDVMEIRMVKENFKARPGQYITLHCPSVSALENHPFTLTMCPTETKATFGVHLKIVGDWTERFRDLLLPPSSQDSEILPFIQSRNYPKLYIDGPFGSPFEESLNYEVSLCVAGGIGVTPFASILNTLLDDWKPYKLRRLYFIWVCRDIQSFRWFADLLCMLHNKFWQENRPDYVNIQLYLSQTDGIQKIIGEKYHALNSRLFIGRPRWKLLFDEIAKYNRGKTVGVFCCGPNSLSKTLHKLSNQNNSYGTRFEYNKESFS
- measurement.protocol: Inhibition of NOX4 in human ARPE19 cells assessed as suppression of 4-HNE-induced superoxide production at 10 uM pre-incubated for 1 hr before 4-HNE addition for 1 hr by lucigenin chemiluminescence assay
- Assay type: cell-based
measure: inhibition (%)

Below: 2 compounds and their reported inhibition.
Cc1cccc(C(C)(C)C)c1NC(=O)Nc1nc(C)c(O)c(C)c1C | 8.9
Cc1nc(NC(=O)Nc2ccccc2)c(C)c(C)c1O | 7.1

1. CCCCNC(=S)Nc1nc(C)c(O)c(C)c1C
2. Cc1nc(NC(=O)Nc2ccc(F)cc2)c(C)c(C)c1O
Task: Given 1 and 2 , report the one with the higher recorded inhibition. Lab log: write the label of the selected item as the result.
Output: 1

a. Cc1nc(NC(=S)Nc2ccc(Br)cc2)c(C)c(C)c1O
b. Cc1nc(NC(=O)Nc2ccc(OC(F)(F)F)cc2)c(C)c(C)c1O
Task: Of a and b , which carries the smaller reported inhibition figure? The response must carry the label of the picked entry.
Output: a

P. Cc1nc(NC(=O)Nc2ccc(Cl)cc2)c(C)c(C)c1O
Q. COc1ccc(NC(=S)Nc2nc(C)c(O)c(C)c2C)cc1
R. Cc1nc(NC(=O)Nc2ccc(Br)cc2)c(C)c(C)c1O
Task: Rank the items in ascending order with respect to inhibition. Answer by writing out the labels in the requested order.
Output: R, Q, P
(R: 0.9%, Q: 17.7%, P: 30.8%)

###

- assay.system: NADPH oxidase 4 (Homo sapiens) (UniProt Q9NPH5)
- measurement.protocol: Inhibition of NOX4 in human ARPE19 cells assessed as protection against 4-HNE-induced cell death by measuring cell viability recovery at 10 uM incubated for 24 hrs by MTT assay
- Type: cell-based
measure: Activity (%)
Could you give me the number in %? Just the number is fine.

Consider the following illustrative entries.
Cc1nc(NC(=O)Nc2ccc(C(F)(F)F)cc2)c(C)c(C)c1O | 44.2
Cc1nc(NC(=O)Nc2ccccc2)c(C)c(C)c1O | 8.9

Task: Consider the molecule Cc1nc(NC(=S)NC2CCCCC2)c(C)c(C)c1O and give its measured Activity.
Output: 62.2

Task: // next record Cc1nc(NC(=O)Nc2ccc(F)cc2)c(C)c(C)c1O
Output: 6.2

Task: Then Cc1ccc(NC(=O)Nc2nc(C)c(O)c(C)c2C)cc1 ?
Output: 5.3
